molecular target: Non-receptor tyrosine-protein kinase TYK2 (Homo sapiens, UniProt P29597)
Sequence (P29597 whole entry): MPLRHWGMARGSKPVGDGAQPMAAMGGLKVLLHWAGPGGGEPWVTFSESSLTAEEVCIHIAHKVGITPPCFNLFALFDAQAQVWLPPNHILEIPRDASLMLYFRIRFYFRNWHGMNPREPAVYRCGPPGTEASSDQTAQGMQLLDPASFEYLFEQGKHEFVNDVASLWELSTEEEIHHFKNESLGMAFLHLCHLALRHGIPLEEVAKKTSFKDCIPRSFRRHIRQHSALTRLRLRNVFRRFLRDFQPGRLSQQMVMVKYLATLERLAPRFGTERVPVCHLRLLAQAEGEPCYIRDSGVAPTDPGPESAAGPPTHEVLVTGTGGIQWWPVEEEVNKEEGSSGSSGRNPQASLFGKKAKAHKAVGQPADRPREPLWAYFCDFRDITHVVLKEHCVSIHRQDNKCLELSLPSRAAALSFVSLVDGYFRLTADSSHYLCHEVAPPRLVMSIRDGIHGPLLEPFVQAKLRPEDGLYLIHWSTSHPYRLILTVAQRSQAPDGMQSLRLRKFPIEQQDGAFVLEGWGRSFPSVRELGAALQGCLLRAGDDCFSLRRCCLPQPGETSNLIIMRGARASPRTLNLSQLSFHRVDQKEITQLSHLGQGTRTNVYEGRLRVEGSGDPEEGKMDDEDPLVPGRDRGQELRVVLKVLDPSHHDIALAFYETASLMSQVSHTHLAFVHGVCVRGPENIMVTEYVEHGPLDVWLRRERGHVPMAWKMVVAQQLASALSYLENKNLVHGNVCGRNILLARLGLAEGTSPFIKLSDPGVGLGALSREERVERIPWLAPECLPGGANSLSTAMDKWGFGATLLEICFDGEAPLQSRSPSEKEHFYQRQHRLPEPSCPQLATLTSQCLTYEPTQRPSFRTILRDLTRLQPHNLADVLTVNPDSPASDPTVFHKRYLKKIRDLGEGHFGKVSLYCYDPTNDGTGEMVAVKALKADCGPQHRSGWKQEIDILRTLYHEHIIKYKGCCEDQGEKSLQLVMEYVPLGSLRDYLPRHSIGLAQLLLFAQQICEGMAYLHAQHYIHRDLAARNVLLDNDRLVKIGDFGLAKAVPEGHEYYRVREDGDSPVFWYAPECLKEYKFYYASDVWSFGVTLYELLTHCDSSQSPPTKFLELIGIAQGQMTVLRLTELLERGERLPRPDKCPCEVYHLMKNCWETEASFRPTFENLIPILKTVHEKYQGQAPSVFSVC
pIC50: −log10 of the molar value.
testReadout: pIC50

>>> result("O=C(CCCCCCOc1ccc2cc1COC/C=C/COCc1cccc(c1)-c1ccnc(n1)N2)NO")
"6.00 to 8.00"

====

biological target: Tyrosine-protein kinase JAK3 (Homo sapiens, UniProt P52333); experiment: Inhibition of human JAK3 JH1 catalytic domain (I781 to S1124 residues) expressed in mammalian expression system by KINOMEScan assay
Sequence (P52333 whole entry, the tested form may be a part): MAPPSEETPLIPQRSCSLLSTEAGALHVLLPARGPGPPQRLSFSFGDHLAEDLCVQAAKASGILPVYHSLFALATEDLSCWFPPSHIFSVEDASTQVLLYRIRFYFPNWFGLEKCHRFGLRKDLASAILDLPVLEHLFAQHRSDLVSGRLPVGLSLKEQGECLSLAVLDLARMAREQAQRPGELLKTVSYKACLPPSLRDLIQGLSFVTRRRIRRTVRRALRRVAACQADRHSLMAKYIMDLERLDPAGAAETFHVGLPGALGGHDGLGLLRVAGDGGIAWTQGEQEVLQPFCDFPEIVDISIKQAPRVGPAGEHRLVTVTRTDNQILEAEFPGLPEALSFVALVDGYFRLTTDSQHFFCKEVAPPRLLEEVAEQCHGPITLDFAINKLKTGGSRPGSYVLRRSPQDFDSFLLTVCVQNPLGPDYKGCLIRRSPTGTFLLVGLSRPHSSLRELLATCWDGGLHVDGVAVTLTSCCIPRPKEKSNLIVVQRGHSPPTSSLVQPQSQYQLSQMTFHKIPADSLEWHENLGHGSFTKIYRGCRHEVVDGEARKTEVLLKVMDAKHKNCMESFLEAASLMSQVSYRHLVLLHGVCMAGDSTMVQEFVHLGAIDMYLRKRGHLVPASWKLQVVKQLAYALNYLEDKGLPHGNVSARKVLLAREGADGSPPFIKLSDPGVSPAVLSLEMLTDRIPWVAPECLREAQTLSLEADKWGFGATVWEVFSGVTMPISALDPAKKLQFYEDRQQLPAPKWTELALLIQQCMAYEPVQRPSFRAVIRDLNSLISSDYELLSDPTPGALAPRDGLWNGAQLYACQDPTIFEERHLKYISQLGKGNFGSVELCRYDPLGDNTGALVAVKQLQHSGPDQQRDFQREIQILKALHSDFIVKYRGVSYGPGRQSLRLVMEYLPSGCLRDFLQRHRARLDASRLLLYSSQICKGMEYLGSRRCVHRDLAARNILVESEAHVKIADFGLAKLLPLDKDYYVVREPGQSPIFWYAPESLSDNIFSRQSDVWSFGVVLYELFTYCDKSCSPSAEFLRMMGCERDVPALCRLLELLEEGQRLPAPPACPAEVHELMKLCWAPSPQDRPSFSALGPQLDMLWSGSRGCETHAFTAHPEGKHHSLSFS
pIC50: −log10 of the molar value.
testReadout: pIC50

>>> result("O=C(CCCCCCOc1ccc2cc1COC/C=C/COCc1cccc(c1)-c1ccnc(n1)N2)NO")
"6.00 to 8.00"
